Experiment: in vitro
Conditions: mouse, l-929 cells
attribute_measured: MCC at 48 h (µg/mL)

INSERT INTO measurements (compound, attribute_measured, qualifier_symbol, result) VALUES
  ('CCN1C(=O)[C@@H]2[C@H](N(CC)C1=O)C(C)(C)C2(C)C (relative stereo) [TI-16 Substance]', 'MCC at 48 h', '=', 500),
  ('CCN1C(=O)N(CC)C2C(C)(C)C(C)(C)C2(F)C1=O (stereo not shown) [TI-65 Substance]', 'MCC at 48 h', '=', 250),
  ('CCN1C(=O)NC(=O)C2(F)C1C(C)(C)C2(C)C (stereo not shown) [TI-62 Substance]', 'MCC at 48 h', '=', 250),
  ('CN1C(=O)[C@@H]2[C@H](N(C)C1=O)C(C)(C)C2(C)C (relative stereo) [TI-27 Substance]', 'MCC at 48 h', '=', 250),
  ('CC1(C)C2N(Cc3ccccc3)C(=O)N(Cc3ccccc3)C(=O)C2(F)C1(C)C (stereo not shown) [TI-66 Substance]', 'MCC at 48 h', '=', 15.6),
  ('CN1C(=O)NC2C(C)(C)C(C)(C)C2(F)C1=O (stereo not shown) [TI-61 Substance]', 'MCC at 48 h', '=', 125),
  ('CC1(C)O[C@@H]2[C@H](O1)[C@@H](CO)O[C@H]2N1C(=O)NC(=O)C2C1C(C)(C)C2(C)C (stereo partly shown) [TI-28 Substance]', 'MCC at 48 h', '>', 1000);

----------
Test: in vitro
Settings: dog, mdck
attribute_measured: MCC at 48 h (µg/mL)

INSERT INTO results (molecule, result) VALUES
  ('CCN1C(=O)NC(=O)C2(F)C1C(C)(C)C2(C)C (stereo not shown) [TI-62 Substance]', 1000),
  ('CC1(C)O[C@@H]2[C@H](O1)[C@@H](CO)O[C@H]2N1C(=O)NC(=O)C2C1C(C)(C)C2(C)C (stereo partly shown) [TI-28 Substance]', 1000),
  ('NC12CC3CC(CC(C3)C1)C2 [Amantadine, reference compound]', 250),
  ('CCN1C(=O)[C@@H]2[C@H](N(CC)C1=O)C(C)(C)C2(C)C (relative stereo) [TI-16 Substance]', 1000);
